Molecular target: T1, tip-chimeric peptide IhfA5-mIhfB4NTHI (nontypeable Haemophilus influenzae …)
T1 construct: also called IHF(NTHI) tip chimeric peptide; IHFNTHI tip chimeric peptide
T1 peptide: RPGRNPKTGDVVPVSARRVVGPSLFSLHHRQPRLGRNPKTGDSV
Test: SPR Biacore 3000, HuMab immobilized, peptide as analyte
EXPERIMENTAL READOUT: kon

humanized anti-tip monoclonal antibody, heavy chain SEQ ID NO: 2 and light chain SEQ ID NO: 8 (antibody, V domains shown, also called H10211 (1F8.F1 Humanized HC2) + L10211 (1F8.F1 Humanized LC2)) VH: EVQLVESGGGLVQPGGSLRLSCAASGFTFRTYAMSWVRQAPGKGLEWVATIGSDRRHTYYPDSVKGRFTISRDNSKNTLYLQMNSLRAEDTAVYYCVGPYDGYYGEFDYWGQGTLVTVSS VL: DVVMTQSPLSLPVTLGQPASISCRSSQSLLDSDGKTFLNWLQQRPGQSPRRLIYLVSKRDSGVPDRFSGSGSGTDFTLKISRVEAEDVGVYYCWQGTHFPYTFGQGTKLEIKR ... 300 M⁻¹ s⁻¹
humanized anti-tip monoclonal antibody, heavy chain SEQ ID NO: 1 and light chain SEQ ID NO: 8 (antibody, V domains shown, also called H10210 (1F8.F1 Humanized HC1) + L10211 (1F8.F1 Humanized LC2)) VH: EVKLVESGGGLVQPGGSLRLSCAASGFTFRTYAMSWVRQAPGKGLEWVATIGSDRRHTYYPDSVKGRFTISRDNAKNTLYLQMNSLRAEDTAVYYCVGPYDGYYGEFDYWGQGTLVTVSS VL: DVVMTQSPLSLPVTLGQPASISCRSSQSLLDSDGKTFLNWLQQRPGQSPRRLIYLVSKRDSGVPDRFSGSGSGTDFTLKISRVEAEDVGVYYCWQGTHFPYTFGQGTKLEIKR ... 17000 M⁻¹ s⁻¹
humanized anti-tip monoclonal antibody, heavy chain SEQ ID NO: 1 and light chain SEQ ID NO: 7 (antibody, V domains shown, also called HuTipMab; TP-21949) VH: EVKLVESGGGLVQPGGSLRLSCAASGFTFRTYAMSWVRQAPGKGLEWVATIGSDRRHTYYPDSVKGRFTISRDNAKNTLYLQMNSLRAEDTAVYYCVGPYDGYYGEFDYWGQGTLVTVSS VL: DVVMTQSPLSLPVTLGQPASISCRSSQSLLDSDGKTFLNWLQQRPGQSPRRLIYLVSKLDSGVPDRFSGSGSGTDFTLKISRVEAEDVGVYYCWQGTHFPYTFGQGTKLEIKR ... 4500 M⁻¹ s⁻¹
